# credit: PubChem BioAssay (NCATS)

molecular target: Cellular tumor antigen p53 (Homo sapiens); assay: Primary qHTS for small molecule compounds that upregulate eGFP-tagged delta133p53alpha (in N-terminal) cells. (AID 2060322); settings: NCI-H358 eGFP-delta133p53alpha fluorescence, 24 h; active compounds read high;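 note: cells pre-induced with doxycycline then dosed without doxycycline; 0% = DMSO vehicle and 100% = reference activator; nearly all actives have a fitted effect of over 75% in size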
Results filed as inconclusive are left out. Activity calls are given as the source filed them. Calls come from the whole dose curve; as a rule, active = well fitted activation curve with a large enough effect; inconclusive = small, poorly fitted or top-dose-only effect; inactive = no such curve, though single readings can be large or run the other way.
result_type: activation

OC(CCN1CCCCC1)(c1ccccc1)c1ccccc1 : 1.69% (inactive)

Consider the record given below.
Report activation for COc1cc(C)nc(-n2nc(C)cc2OC)n1 please.
-12.6% (inactive)

----------
test: BET inhibitor-based combinations targeting novel dependencies in MECOM-rearranged (r) AML: MV-4-11 cell line (AID 2202233); conditions: MV-4-11 AML viability, CellTiter-Glo luminescence, 48 h; series mostly up to 46 µM; note: nearly all actives have a fitted effect of over 45% in size
Records with an inconclusive call do not appear. Active and inactive are the calls of the source. Calls follow the shape of the dose curve; as a rule, active = well fitted inhibition curve with a large enough effect; inconclusive = small, poorly fitted or top-dose-only effect; inactive = no such curve, though single readings can be large or run the other way.
Mark one answer only. Choices: true = active, false = inactive

Fc1cc(-c2cccc3ncc(-c4cnn(C5CCNCC5)c4)nc23)cc(F)c1CN1CCOCC1 : true
CCCc1cc(C(N)=S)ccn1 : false
c1ccc([C@H]2CN3CCSC3=N2)cc1 : false
CC1=C(CO)C(=O)O[C@@H]([C@@H](C)[C@H]2CC[C@H]3[C@@H]4C[C@H]5O[C@]56[C@@H](O)C=CC(=O)[C@]6(C)[C@H]4CC[C@]23C)C1 : true

How did this test come out for O=C(c1ccc(F)cc1)N1CCC[C@H](c2nc(-c3ccc(F)cc3)no2)C1 ?
true

Please share the test call associated with COc1ccc(/C=C/C(=O)Nc2ccccc2C(=O)O)cc1OC .
false

Would you mind telling me which call this test gave CCc1nc(N)nc(N)c1-c1ccc(Cl)cc1 ?
true

Could you please tell me the result logged for O=c1cc(N2CCOCC2)oc2c(-c3ccccc3)cccc12 in this assay?
true

Per the records of this test, what outcome belongs to CN1c2ccccc2C(=O)N2CCc3c([nH]c4ccccc34)C21 (stereo not given) ?
true

Hello, I am checking results. What call was entered for COc1cc(C)c(Sc2cnc(NC(=O)c3ccc(CNC(C)C(C)C)cc3)s2)cc1C(=O)N1CCN(C(C)=O)CC1 (stereo not given) ?
true

How was COC(c1ccccc1)(c1ccccc1)[C@H](Oc1nc(C)cc(C)n1)C(=O)O classified in this test?
false

Outcome? Cc1cc(O)c2c(c1)C(=O)c1cc(O)cc(O)c1C2=O
false

Assay outcome for CN[C@H]1CCc2cc(OC)c(OC)c(OC)c2-c2ccc(OC)c(=O)cc21 : what was it?
true

For CC(C)CC(=O)Nc1n[nH]c2c1CN(C(=O)C1CCN(C)CC1)C2(C)C , which call appears in the assay record?
true

# lookup: test call for Cc1nc(N)sc1-c1ccnc(Nc2ccc(N3CCOCC3)cc2)n1
true

In this assay, the call recorded for NCCc1ccc(O)c(O)c1 was what?
true

Query: recorded result category for Cc1cc(Nc2ncc3c(n2)N(C)C(=O)N(c2cc(NC(=O)c4cccc(C(F)(F)F)c4)ccc2C)C3)n(C)n1 in this test
true

Lab log entry: CC1=C(CC(=O)O)c2cc(F)ccc2C1=Cc1ccc(S(C)=O)cc1 (stereo not given) — outcome as called in the assay?
true

Call for entry CC1=CC(=O)c2ccccc2C1=O :
true

Fill in: this test's call for CNc1nccc(-c2cccnc2Oc2cc(C(=O)Nc3cccc(C(F)(F)F)c3)ccc2C)n1 is ___
true

Called result for CC[C@]1(O)C[C@H]2CN(CCc3c([nH]c4ccccc34)[C@@](C(=O)OC)(c3cc4c(cc3OC)N(C=O)[C@H]3[C@@](O)(C(=O)OC)[C@H](OC(C)=O)[C@]5(CC)C=CCN6CC[C@]43[C@@H]65)C2)C1
true

Write down the call the test reported for this molecule. Item: CCOC(=O)C1=C(N)Oc2ccc(Br)cc2C1C(C#N)C(=O)OCC (stereo not given)
false

How did this test come out for CCc1cncnc1N1CCN(Cc2nc3ccc(C(F)(F)F)cc3[nH]2)CC1 ?
true

----------
test: qHTS for Inhibitors of the Aldehyde Dehydrogenase Family (ALDH1A2, ALDH1A3, ALDH2, ALDH3A1) (AID 2061307); conditions: ALDH inhibition qHTS; series mostly up to 50.3 µM; note: nearly all actives have a fitted effect of over 50% in size
Inconclusive results are not listed. The source made the active and inactive calls. The call rests on the fitted dose curve; in most records, active means well fitted inhibition curve with a large enough effect; inconclusive means small, poorly fitted or top-dose-only effect; inactive means no such curve, though single readings can be large or run the other way.
The reply should name one outcome from active, inactive

Completed entries (count: 4):
OCC1O[C@H]([S-])[C@H](O)[C@@H](O)[C@@H]1O.[Au+] (stereo not given in full) : active
CC(NC(=O)CC(=O)O)c1nc2ccccc2c(=O)[nH]1 (stereo not given) : inactive
C=CC(C)(O)CC/C=C(\C)C1CC=C(C)C(=O)O1 (stereo not given) : inactive
OCc1ccc(-c2ccc3ncnc(N4CCOCC4)c3c2)o1 : active

Moving on to another molecule below.
Record lookup: outcome of this test for C/C=C1\[C@H](O[C@@H]2O[C@H](CO)[C@@H](O)[C@H](O)[C@H]2O)OC=C(C(=O)OC)[C@H]1CC(=O)OC[C@H]1O[C@@H](OCCc2ccc(O)cc2)[C@H](O)[C@@H](O)[C@@H]1O ?
inactive

----------
molecular target: Retinal dehydrogenase 2 (Homo sapiens) (UniProt O94788); assay: qHTS for Inhibitors of the Aldehyde Dehydrogenase Family (ALDH1A2) Confirmation screens (AID 2061314); details: ALDH1A2 enzyme inhibition qHTS confirmation; series mostly up to 45.9 µM; note: nearly all actives have a fitted effect of over 65% in size
Results filed as inconclusive are left out. Activity calls are given as the source filed them. Calls come from the whole dose curve; as a rule, active = well fitted inhibition curve with a large enough effect; inconclusive = small, poorly fitted or top-dose-only effect; inactive = no such curve, though single readings can be large or run the other way.
Entry note: the call must match one of YES for active, NO for inactive

Cc1cc(N2C(=O)c3ccccc3C2=O)n[nH]1 : NO

Per the records of this test, what outcome belongs to Cc1ccc(NC(=O)N2CCN(c3nc(N)nc4sc(-c5cccnc5)nc34)CC2)cc1 ?
YES

For CC(=O)NC(C)c1cnc(-c2cnc(Oc3ccc(OC(C)C)cc3)s2)s1 (stereo not given) , which call appears in the assay record?
NO

# outcome recorded in this test, key = CCc1ccc(-n2c(SCc3cccc(F)c3)nc3[nH]ncc3c2=O)cc1
NO

Lab log entry: COc1ccc(Nc2ncc(C(=O)N3CCN(c4ccc(F)cc4)CC3)c3ccccc23)cc1 — outcome as called in the assay?
NO

----------
Recorded measurements of activation, one per entry
biological target: Cellular tumor antigen p53 (Homo sapiens); assay: Primary qHTS for small molecule compounds that upregulate eGFP-tagged delta133p53alpha (in N-terminal) cells. (AID 2060322); details: NCI-H358 eGFP-delta133p53alpha fluorescence, 24 h; active compounds read high;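 note: cells pre-induced with doxycycline then dosed without doxycycline; 0% = DMSO vehicle and 100% = reference activator; nearly all actives have a fitted effect of over 75% in size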
Records with an inconclusive call do not appear.
Response body: numeric value in %, unit text excluded.

CCCCC(O)/C=C(C)/C=C/C=C/C(=O)N1CCCC1=O (stereo not given) : 13.4
CCCCOc1cc(C(=O)NCCN(CC)CC)c2ccccc2n1 : 0
Cc1cc(NS(=O)(=O)c2ccc(N)cc2)nc(C)n1 : -13.4
CCC(Nc1ncnc2nc[nH]c12)c1nc2cccc(F)c2c(=O)n1-c1ccccc1 (stereo not given) : 4.46
O=C(O)c1cc([N+](=O)[O-])ccc1NCCCc1ccccc1 : -7.19

May I ask what activation has been recorded for O=C(CN1CCNCC1)NC1CCCCC1 ?
7.53

Looking for the measured activation of C[C@@H](c1ccccc1)N(C(N)=NC#N)c1cccc2ncccc12 , can you help?
2.33

Requested field: activation. Item: CNC(=O)c1c(I)c(NC(C)=O)c(I)c(C(=O)O)c1I
-8.47

Dear colleague, I am looking for the recorded activation of the following compound: CC1CCC2(C(=O)O)CCC3(C)C(=CCC4C5(C)C[C@@H](O)[C@@H](O)C(C)(CO)C5CCC43C)C2C1(C)O (stereo not given in full)
11.6

So what does the record say about activation for CCOC(=O)[C@H](CCc1ccccc1)N[C@@H](C)C(=O)N1[C@H](C(=O)O)C[C@@H]2CCC[C@@H]21 ?
5.08

----------
molecular target: Cellular tumor antigen p53 (Homo sapiens) (UniProt P04637); test: Primary qHTS for small molecule compounds that upregulate eGFP-tagged delta133p53alpha (in N-terminal) cells. (AID 2060322); conditions: NCI-H358 eGFP-delta133p53alpha fluorescence, 24 h; active compounds read high;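 note: cells pre-induced with doxycycline then dosed without doxycycline; 0% = DMSO vehicle and 100% = reference activator; nearly all actives have a fitted effect of over 75% in size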
Sequence (P04637 whole entry, looked up): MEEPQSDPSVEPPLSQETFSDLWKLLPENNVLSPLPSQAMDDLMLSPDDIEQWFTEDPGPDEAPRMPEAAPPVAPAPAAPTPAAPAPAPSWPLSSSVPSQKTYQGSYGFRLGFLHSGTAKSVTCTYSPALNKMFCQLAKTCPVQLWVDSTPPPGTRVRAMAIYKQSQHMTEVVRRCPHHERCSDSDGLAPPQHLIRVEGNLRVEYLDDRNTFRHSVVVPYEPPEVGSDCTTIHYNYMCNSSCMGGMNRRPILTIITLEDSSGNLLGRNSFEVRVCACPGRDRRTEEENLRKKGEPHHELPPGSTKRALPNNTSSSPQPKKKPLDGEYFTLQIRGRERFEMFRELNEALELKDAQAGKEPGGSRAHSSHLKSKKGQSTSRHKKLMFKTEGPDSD
Records with an inconclusive call do not appear.
result_type: activation (%)
Express your answer in %, writing the number without its unit.

O=C(O)c1c(O)c(-c2ccccc2)nc2ccccc12 : 22

Turning to the following compound.
Recorded activation for CC1(C)CC[C@]2(C(=O)O)CC[C@]3(C)C(=CCC4[C@@]5(C)CC[C@H](O)C(C)(C)C5CC[C@]43C)C2C1 (stereo partly drawn) , please?
-0.763

----------
Form field: activation (one value per entry).
biological target: Cellular tumor antigen p53 (Homo sapiens); test: Primary qHTS for small molecule compounds that upregulate eGFP-tagged delta133p53alpha (in N-terminal) cells. (AID 2060322); conditions: NCI-H358 eGFP-delta133p53alpha fluorescence, 24 h; active compounds read high;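 note: cells pre-induced with doxycycline then dosed without doxycycline; 0% = DMSO vehicle and 100% = reference activator; nearly all actives have a fitted effect of over 75% in size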
Records with an inconclusive call do not appear. The source made the active and inactive calls. Calls follow the shape of the dose curve; as a rule, active = well fitted activation curve with a large enough effect; inconclusive = small, poorly fitted or top-dose-only effect; inactive = no such curve, though single readings can be large or run the other way.

The examples below pair each entry with its known result.
CC1=C(COC2OC(CO)C(O)C(O)C2O)C(C(CO)C(=O)O)CC1 (stereo not given) : -6.87% (inactive)
CCCCOc1nc(N)c2c(n1)N(Cc1cccc(CN3CCCC3)c1)CC(=O)N2 : 5.73% (inactive)
CCC[C@@H](NC(=O)N1C(=O)C(CC)(CC)[C@@H]1Oc1ccc(C(=O)N2CCN(C)CC2)cc1)c1ccc2c(c1)OCO2 : -10.5% (inactive)
N#Cc1cccc(C(=O)Nc2cc(-c3ccccc3)nn2-c2ccccc2)c1 : -0.893% (inactive)

Turning to the following compound.
For CC(=O)c1c(C)cc(O[C@@H]2O[C@H](CO)[C@@H](O)[C@H](O)[C@H]2O)cc1O , what is its reported activation?
-9.92% (inactive)
